Target: CRBN truncate (318-426) (Homo sapiens (Human), UniProt Q96SW2)
Sequence (Q96SW2 318-426): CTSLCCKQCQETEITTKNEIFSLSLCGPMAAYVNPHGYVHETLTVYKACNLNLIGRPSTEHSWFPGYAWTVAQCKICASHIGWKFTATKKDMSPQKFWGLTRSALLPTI
Assay: Measurement of molecular interactions using surface plasmon resonance (SPR), Biacore T200
Settings: 25° C., immobilized CRBN truncate, upper limit of measurement 200 μM
Task for the reader: assign each of the following compounds its reported Kd.

Below, 5 compounds whose answers are already recorded.
O=C1CCCC2(CCCN(C(=O)c3ccccc3)C2)C(=O)N1 (centres unmarked) :: ≥ 100 µM
Cn1c(=O)n(C2CCCC(=O)NC2=O)c2ccc(Br)cc21 (centres unmarked) :: 50 to 100 µM
O=C1COCC(NC(=O)c2cccc(-c3ccccc3)c2)C(=O)N1 (centres unmarked) :: ≥ 100 µM
Cc1sc2c(c1C)C(c1ccc(Cl)cc1)=N[C@@H](CC(=O)NCCCCCCn1ccc3c(C(=O)N4CCC5(CCCC(=O)NC5=O)CC4)cccc31)c1nnc(C)n1-2 :: < 50 µM
CC(C)(C)OC(=O)c1ccc(N2CCC3(CCCC(=O)NC3=O)CC2)nc1 :: 50 to 100 µM

Parameter requested: Kd. Apply to each item below.
1. Cn1c(=O)n(C2CCCC(=O)NC2=O)c(=O)c2ccc(Br)cc21 (centres unmarked)
2. CC(C)(C)OC(=O)N1CCC(Oc2ccc(CN3CC4(CC(=O)N(C5CCC(=O)NC5=O)C4=O)C3)cc2)CC1 (centres unmarked)
3. COc1cccc2sc(N3CC4(CC(=O)N(C5CCC(=O)NC5=O)C4=O)C3)nc12 (centres unmarked)

stdout:
50 to 100 µM
≥ 100 µM
≥ 100 µM

* * *

Biological target: CRBN truncate (318-426) (Homo sapiens (Human), UniProt Q96SW2)
Assay: Measurement of molecular interactions using surface plasmon resonance (SPR), Biacore T200
Assay type: binding
Conditions: 25° C., immobilized CRBN truncate, upper limit of measurement 200 μM
pKd: −log10 of the molar value.
VALUE TYPE: pKd

Below, 3 compounds whose answers are already recorded.
Cc1sc2c(c1C)C(c1ccc(Cl)cc1)=N[C@@H](CC(=O)NCCCCCCc1ccc(-c3cn(C4CCCC(=O)NC4=O)nn3)cc1)c1nnc(C)n1-2 (stereo partly drawn) :: > 4.30
CC(C)(C)OC(=O)NCCCCCN1CC2(CC(=O)N(C3CCC(=O)NC3=O)C2=O)C1 (stereo not drawn) :: ≤ 4.00
CNC(=O)c1ccc(N2CCC3(CCCC(=O)NC3=O)C2)nc1 (stereo not drawn) :: ≤ 4.00

Parameter requested: pKd. Apply to each item below.
1. CC(C)(C)OC(=O)Cn1c(=O)c(=O)n(C2CCCC(=O)NC2=O)c2ccccc21 (stereo not drawn)
2. Cn1c(=O)n(C2CCCC(=O)NC2=O)c2ccc(CCC(=O)OC(C)(C)C)cc21 (stereo not drawn)
3. O=C1CCC(N2C(=O)CC3(CN(C4CCN(CC(=O)OCc5ccccc5)CC4)C3)C2=O)C(=O)N1 (stereo not drawn)

stdout:
["≤ 4.00", "4.00 to 4.30", "> 4.30"]

Parameter requested: pKd. Apply to each item below.
1. CC(C)(C)OC(=O)N1CCC(c2cnc(N3CCC4(CCCC(=O)NC4=O)C3)nc2)CC1 (stereo not drawn)
2. Cc1sc2c(c1C)C(c1ccc(Cl)cc1)=N[C@@H](CC(=O)NCCCCCCCCNC(=O)CCc1ccc3c(c1)oc(=O)n3C1CCCC(=O)NC1=O)c1nnc(C)n1-2 (stereo partly drawn)
3. CC(C)(C)OC(=O)c1ccc(N2CCCC3(CCCC(=O)NC3=O)C2)nc1 (stereo not drawn)
4. CC(C)(C)OC(=O)NCCCCCCc1ccccc1C(=O)N1CCC2(CCCC(=O)NC2=O)C1 (stereo not drawn)
5. COC(=O)c1cc2c(N3CCC4(CCCC(=O)NC4=O)C3)ncnc2s1 (stereo not drawn)
6. O=C1CCCC(n2ncc(Cl)cc2=O)C(=O)N1 (stereo not drawn)
7. Cc1sc2c(c1C)C(c1ccc(Cl)cc1)=N[C@@H](CC(=O)NCCCCCCCCCCC(=O)N1CCC(c3ccc(OC4CCCC(=O)NC4=O)cc3)CC1)c1nnc(C)n1-2 (stereo partly drawn)

stdout:
1: > 4.30; 2: > 4.30; 3: ≤ 4.00; 4: ≤ 4.00; 5: > 4.30; 6: ≤ 4.00; 7: > 4.30

Parameter requested: pKd. Apply to each item below.
1. NC(=O)c1nn(-c2ccc(C(=O)NCCOCCOCCNC(=O)CN3CCC4(CCCC(=O)NC4=O)CC3=O)cc2)cc1NC(=O)c1coc(-c2ccnc(NCC3CC3)c2)n1 (stereo not drawn)
2. CC(C)(C)OC(=O)N1CCc2c(ncnc2N2CC3(CC(=O)N(C4CCC(=O)NC4=O)C3=O)C2)C1 (stereo not drawn)
3. O=C1CCCC(n2cc(CCCCCCCC(=O)OCc3ccccc3)nn2)C(=O)N1 (stereo not drawn)

stdout:
["> 4.30", "≤ 4.00", "4.00 to 4.30"]

Parameter requested: pKd. Apply to each item below.
1. O=C1CCC(N2C(=O)CC3(CN(C(=O)CNC(=O)c4ccccc4)C3)C2=O)C(=O)N1 (stereo not drawn)
2. Cc1sc2c(c1C)C(c1ccc(Cl)cc1)=N[C@@H](CC(=O)NCCCCCCCCNC(=O)CCc1ccc3c(c1)sc(=O)n3C1CCCC(=O)NC1=O)c1nnc(C)n1-2 (stereo partly drawn)
3. CC(=O)Nc1cccc(C2(F)CCCC(=O)NC2=O)c1 (stereo not drawn)
4. CC(C)(C)OC(=O)COc1ccccc1-c1cn(C2CCCC(=O)NC2=O)nn1 (stereo not drawn)

stdout:
["≤ 4.00", "> 4.30", "≤ 4.00", "≤ 4.00"]

Parameter requested: pKd. Apply to each item below.
1. CC(C)(C)OC(=O)NCCCCCCCCn1ccc2c(N3CC4(CC(=O)N(C5CCC(=O)NC5=O)C4=O)C3)ncnc21 (stereo not drawn)
2. CC(C)(C)OC(=O)CCCCCN1CC2(CC(=O)N(C3CCC(=O)NC3=O)C2=O)C1 (stereo not drawn)
3. Cn1c(=O)n(C2CCCC(=O)NC2=O)c2cccc(C3=CCN(CC(=O)OC(C)(C)C)CC3)c21 (stereo not drawn)
4. CC1(N2CC=CC(=O)NC2=O)C(=O)N(CC(=O)OCc2ccccc2)c2ccccc21 (stereo not drawn)
5. Nc1nccc(N2CC3(CC(=O)N(C4CCC(=O)NC4=O)C3=O)C2)n1 (stereo not drawn)
6. CC(C)(C)OC(=O)c1ccc(N2CCC3(CCCC(=O)NC3=O)C2=O)nc1 (stereo not drawn)
7. CC(C)(C)OC(=O)N1CCc2c(ncnc2N2CCC3(CCCC(=O)NC3=O)C2)C1 (stereo not drawn)

stdout:
1: > 4.30; 2: ≤ 4.00; 3: 4.00 to 4.30; 4: 4.00 to 4.30; 5: ≤ 4.00; 6: ≤ 4.00; 7: ≤ 4.00

Parameter requested: pKd. Apply to each item below.
1. O=C1CCCC(n2nc(Cl)ccc2=O)C(=O)N1 (stereo not drawn)
2. CC(C)(C)OC(=O)c1ccc(N2CCC3(CCCC(=O)NC3=O)CC2=O)nc1 (stereo not drawn)

stdout:
["≤ 4.00", "4.00 to 4.30"]

stdin: Requested read-out: pKd. Entry: `Cc1sc2c(c1C)C(c1ccc(Cl)cc1)=N[C@@H](CC(=O)NCCCCCCCCCCC(=O)N1CCC(c3cccc(NC45CCC(CC4)C(=O)NC5=O)c3)CC1)c1nnc(C)n1-2`
stdout: 4.00 to 4.30
